assayed.system: Aβ42 (Homo sapiens)
Sequence (P05067 672-713): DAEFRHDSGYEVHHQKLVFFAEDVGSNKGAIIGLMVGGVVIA
protocol.details: Th-T (thioflavin-T) assay of Aβ42 aggregation
Format: biochemical
test.parameters: reading M107; compound at 20 (head suffix _20)
Consider the following compounds and their measured Th-T fluorescence, mean of three wells (Fig. 7a) readings.
reported.metric: Th-T fluorescence, mean of three wells (Fig. 7a)

[[record]]
compound = "C=C1CC[C@@H]2[C@](C)(CC[C@H]3O[C@H](C=C(C)C)C[C@@]23C)[C@@H]1Cc1c(OC)oc(CO)c(C)c1=O"
assayed_system = "Aβ42 (Homo sapiens)"
numeric_result = 3.218

[[record]]
compound = "C=C1CCC2C(C)(CCC=C(C)C)C(O)CCC2(C)C1Cc1c(OC)oc(C)c(C(=O)OC)c1=O (centres unmarked)"
assayed_system = "Aβ42 (Homo sapiens)"
numeric_result = 1.717

[[record]]
compound = "C=C1CCC2C(C)(CCC=C(C)C)C(O)CCC2(C)C1Cc1c(OC)oc(CO)c(C(=O)OC)c1=O (centres unmarked)"
assayed_system = "Aβ42 (Homo sapiens)"
numeric_result = 1.033

[[record]]
compound = "C=C1CC[C@@H]2[C@](C)(CC[C@H]3O[C@H](C=C(C)C)C[C@@]23C)[C@@H]1Cc1c(OC)oc(CO)c(C(=O)OC)c1=O"
assayed_system = "Aβ42 (Homo sapiens)"
numeric_result = 0.9322

[[record]]
compound = "C=C1CCC2C(C)(CCC=C(C)C)C(O)CCC2(C)C1Cc1c(OC)oc(CO)c(C)c1=O (centres unmarked)"
assayed_system = "Aβ42 (Homo sapiens)"
numeric_result = 2.1149

